These entries and their values trace back to the Human Domainome abundance scans (Beltran et al. 2025).

B1: POU domain, class 5, transcription factor 1, residues 134 to 212; numbered along this chain, Q01860 (parent)
chain: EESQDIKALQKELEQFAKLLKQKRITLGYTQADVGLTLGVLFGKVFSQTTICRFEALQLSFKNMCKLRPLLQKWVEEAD

Variants of: B1
ASSAY_INFO: abundance fitness (aPCA) (normalised: wild type 0, dead -1); higher = more abundant; growth selection in yeast, the domain comes from the species named
ASSAY_CONTEXT: Homo sapiens
MEASURED_PARAMETER: abundance fitness
Simply state the number, no unit and no words.

// solved cases for abundance fitness follow
- VARIANT_ID: "L13F"
  abundance fitness: -0.149
- VARIANT_ID: "M64C"
  abundance fitness: -0.739
- VARIANT_ID: "V45G"
  abundance fitness: -0.153
- VARIANT_ID: "G35R"
  abundance fitness: -0.32
- VARIANT_ID: "L9C"
  abundance fitness: -0.123

Suppose we examine the variant "L67C" ; what abundance fitness value has been reported? -0.363
